Reference source: patent US20240317871A1

- Tested target: T1, His-tagged human HVEM (human, UniProt Q92956 39-202, limits assumed)
- T1 construct: Analyte of the BLI assay, 200 nM in PBS; not shown: His tag
- T1 sequence (looked up): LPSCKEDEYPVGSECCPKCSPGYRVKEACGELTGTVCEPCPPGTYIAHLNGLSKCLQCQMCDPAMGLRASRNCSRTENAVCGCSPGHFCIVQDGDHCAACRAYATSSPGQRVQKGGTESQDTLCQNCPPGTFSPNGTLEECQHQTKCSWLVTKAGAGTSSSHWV
- Assay overview: BLI OctetRed96, mAb captured, 200 nM His-HVEM
Endpoint name: Kd (µM)
The reply should contain only the number, in µM.

Ab_055 (H5S19-1A1A) (antibody, V domains shown, also called Ab_55) VH: DVQLQESGPGLVKPSQSLSLTCTVTGYSITSDYAWNWIRQFPGNKLEWMGYIAYSGGTSYSPSLKSRISITRDTSKNQFFLQLNSVTTEDTATYYCVYFKYGGAFAYWGQGTLVTVSA VL: NIVLTQSPASLAVSLGQRATISCRASESVDSYGNSLMHWYQQKPGQPPKLLIYLASNLESGVPARFSGSGSRTDFTLTIDPVEADDAATYYCQQNNEDPPTFGGGTKLEI: 0.544
Ab_027 (H5S15-17A16A) (antibody, V domains shown, also called Ab_27) VH: EVQLQQSGAELVKPGASVKLSCTASGFNIKDTYMHWVKQRPEQGLEWIGRIAPANGKTKFDPKFQGKATITADTSSNTAYLQLSSLTSEDTAVYYCANYYGRSNDWFVYWGQGTLVTVSA VL: DVLMTQTPLSLPVSLGDQASISCRSSQSIVHSNGITYLEWYLQKPGQSPELLIYKVSNRFSGVPDRFSGSGSGTDFTLKISRVEAEDLGVYYCFQGSHVPLTFGAGTKLELK: 0.00268
Ab_077 (H5S20-31A16B) (antibody, V domains shown, also called Ab_77) VH: EVQLQQSGAELVRSGASVKLSCTTSGFNIKDYYMHWVKQRPEQGLEWIGWIDPENGDTEYAPKFQGKATMTADTSSNTAYLQLSSLTSEDTAVYYCNSRTLGYWGQGTLVTVSA VL: QIVLTQSPALMSASPGEKVTMTCSASSSVSFIYWYQQKPRSSPKPWIYLTSNLASGVPARFSGSGSGTSYSLTISSMEAEDAATYYCQQWSSNPLTFGAGTKLEL: 12.4
Ab_026 (H5S15-11A3B) (antibody, V domains shown, also called Ab_26) VH: EVQLQQSGADLVKPGASVKLSCTASGFNIKDTYMHWVKQRPEQGLEWIGRIAPANGRTKYDPKFQGKATITADTSSNTAYLQLSSLTSEDTAVYYCANYYASSYDWFAYWGQGTLVTVSA VL: DVLMTQTPLSLTVSLGHQASISCRSSQSIVHSNGNTYLEWYLQKPGQSPKLLIYKVSNRFSGVPDRFSGSGSGTDFTLKISRVEAEDLGVYYCFQGSHVPLTFGAGTKLELK: 0.0111

Given the entry Ab_050 (H5S19-9A11A) (antibody, V domains shown, also called Ab_50) VH: QVQLKQSGPGLVQPSQSLSITCTVSGFSLTTYGVHWVRQSPGKGLEWLGVIWSGGSTDYNAAFISRLSISKDNSKSQVFFKMNSLQANDTAIYYCARRGYGSPYYYAMDYWGQGTSVTVSS VL: EIVLTQSPALMAASPGEKVTITCSVSSSISSSNLHWYQQKSETSPKPWIYGTSNLASGVPVRFSGSGSGTSYSLTISSMEAEDAATYYCQQWSSYPLTFGAGTKLELK , report its measured Kd. 0.0422
